- tested on: AChE of S. zeamais
- assay procedure: AChE activity assay (modified Ellman) with S. zeamais protein extract
- experimental parameters: S. zeamais protein extract; read-out: AChE Effect ki ± SD (inhibitory constant)
pKi: −log10 of the molar value.
Give YES when the value for pKi is at least 4. Give NO when it is less.

>  <compound>
CC1=CC[C@H]2[C@@H](C1)C2(C)C

>  <discrete label>
YES

$$$$
>  <compound>
C=CCc1ccc(OC)cc1

>  <discrete label>
NO

$$$$
>  <compound>
C=C(C)[C@H]1CC=C(C)C(=O)C1 [Compound C3, S-(+)-Carvone]

>  <discrete label>
YES

$$$$
>  <compound>
CC(C)=C1CC[C@H](C)CC1=O [Compound C2, S-(−)-Pulegone]

>  <discrete label>
YES

$$$$
>  <compound>
C/C=C/c1ccc(OC)cc1 [Compound C29, trans-Anethol]

>  <discrete label>
YES

$$$$
>  <compound>
CC(C)=CCC[C@@H](C)CC=O

>  <discrete label>
NO

$$$$

Tell me whether pKi is at least 4 here: `C=C(C)[C@@H]1CC[C@@H](C)C[C@H]1O`
NO

###

- Test system: Sitophilus zeamais
- assay procedure: whole plant or invertebrate
- experimental parameters: read-out: Fumigant Toxicity LC50 (95% FL); S. zeamais adults, 24 h after exposure
value type: LC50
Dear colleague, please send the value followed by its unit.

# query: LC50 | item CC1=CC[C@H](C(C)C)C=C1 [Compound C14, R-(−)-α-Phellandrene] | system: Sitophilus zeamais
652 µM

###

Reported GST Inhibition λ340 (%) values for a set of compounds
- System: glutathione S-transferase (GST) activity in S. zeamais
- assay procedure: GST activity assay (modified Habig) with S. zeamais protein extract
- Format: biochemical, Sitophilus zeamais
- experimental parameters: 120 mg/L
Number only, in %; omit the unit.

The examples below pair each entry with its known result.
>  <compound>
C=CCc1ccc(O)c(OC)c1 [Compound C26, Eugenol]

>  <GST Inhibition λ340 (%)>
24.3

$$$$
>  <compound>
CC(C)=C1CC[C@@H](C)CC1=O [Compound C1, R-(+)-Pulegone]

>  <GST Inhibition λ340 (%)>
2.4

$$$$
>  <compound>
Cc1ccc(C(C)C)cc1O [Compound C25, Carvacrol]

>  <GST Inhibition λ340 (%)>
19.3

$$$$
>  <compound>
C=C(C)C1CC=C(C)CC1 (racemic) [Compound C16, DL-Limonene (1:1)]

>  <GST Inhibition λ340 (%)>
7.4

$$$$
>  <compound>
C=C(C)[C@@H]1CC[C@@H](C)CC1=O [Compound C23, 2S,5R-Isopulegone]

>  <GST Inhibition λ340 (%)>
19.4

$$$$

Give the measured GST Inhibition λ340 (%) of CC(C)=CCC[C@@H](C)CC=O [Compound C33, Citronellal] .
4.3

Another compound to check: C=C1CCC2(C(C)C)CC12 (stereo not shown) [Compound C18, Sabinene]
25.9

###

Let's look at some compounds and their measured CAT Inhibition λ570 nm (%).
- System: catalase (CAT) activity in S. zeamais
- assay procedure: CAT activity assay (adapted Sinha) with S. zeamais protein extract
- Assay type: biochemical, Sitophilus zeamais
- experimental parameters: 120 mg/L
Answer format: numeric, % implied, no suffix.

Study these solved cases before continuing.
>  <compound>
C=CCc1ccc(O)c(OC)c1

>  <CAT Inhibition λ570 nm (%)>
19.9

$$$$
>  <compound>
C/C=C/c1ccc(OC)cc1 [Compound C29, trans-Anethol]

>  <CAT Inhibition λ570 nm (%)>
23.3

$$$$
>  <compound>
CC(C)=C1CC[C@@H](C)CC1=O [Compound C1, R-(+)-Pulegone]

>  <CAT Inhibition λ570 nm (%)>
4.3

$$$$

Turning now to a further compound:
Returns the measured CAT Inhibition λ570 nm (%) for the input compound. Input: CC(C)=C1CC[C@H](C)CC1=O [Compound C2, S-(−)-Pulegone]
2.4

###

- Test system: glutathione S-transferase (GST) activity in S. zeamais
- assay procedure: GST activity assay (modified Habig) with S. zeamais protein extract
- Assay type: biochemical, Sitophilus zeamais
- experimental parameters: 120 mg/L
value type: GST Inhibition λ340 (%)
Give just the number in %; leave the unit off.

Worked examples follow.
>  <compound>
CC(C)=C1CC[C@H](C)CC1=O [Compound C2, S-(−)-Pulegone]

>  <tested on>
glutathione S-transferase (GST) activity in S. zeamais

>  <unit of measure>
%

>  <GST Inhibition λ340 (%)>
4.3

$$$$
>  <compound>
C=C(C)[C@@H]1CC[C@@H](C)C[C@H]1O [Compound C7, 1R,2S,5R-Isopulegol]

>  <tested on>
glutathione S-transferase (GST) activity in S. zeamais

>  <unit of measure>
%

>  <GST Inhibition λ340 (%)>
10.6

$$$$
>  <compound>
CC1=CC[C@H]2[C@@H](C1)C2(C)C [Compound C15, δ-3-Carene]

>  <tested on>
glutathione S-transferase (GST) activity in S. zeamais

>  <unit of measure>
%

>  <GST Inhibition λ340 (%)>
7.3

$$$$
>  <compound>
C=C(C)[C@H]1CC=C(C)C(=O)C1 [Compound C3, S-(+)-Carvone]

>  <tested on>
glutathione S-transferase (GST) activity in S. zeamais

>  <unit of measure>
%

>  <GST Inhibition λ340 (%)>
23.0

$$$$

Consider the record given below.
Sample CC1=CCC(C(C)C)=CC1 [Compound C21, γ-Terpinene] — what was its GST Inhibition λ340 (%)?
25.9

###

- System: Sitophilus zeamais
- assay procedure: whole plant or invertebrate
- experimental parameters: Sitophilus zeamais, read-out: LC50 values, fumigant activity (Figure 3)
value type: LC50 (µg/mL)
Give your result in µg/mL as a bare value.

Worked examples follow.
>  <compound>
CC1=CC[C@@](O)(C(C)C)CC1 [Compound C5, R-(−)-Terpinen-4-ol]

>  <LC50 / µg/mL>
4.03

$$$$
>  <compound>
C=C1CCC2(C(C)C)CC12 (centres unmarked)

>  <LC50 / µg/mL>
68.6

$$$$
>  <compound>
C=C(C)[C@H]1CC=C(C)C(=O)C1 [Compound C3, S-(+)-Carvone]

>  <LC50 / µg/mL>
2.87

$$$$

Return LC50 measured with Sitophilus zeamais given this compound: C=C(C)[C@@H]1CC=C(C)C(=O)C1 [Compound C4, R-(−)-Carvone]
1.42
